System: DL1 cells
Test Details: cytotoxicity in Drosophila DL1 cells
Assay type: cell-based
Assay Setup: DL1 cells, 0.04 µM, replicate 1
Experimental: We screened the DDPs on the Drosophila assay system for cytotoxicity, inhibitory activity of innate immune signalling and insecticidal activity. The cytotoxicity of the DDPs was evaluated using two cell lines, embryonic macrophage-derived DL1 cells[58]–[60] and larval blood cell-derived l(2)mbn cells, and their IC50 values are listed in Supplementary Table 23.
Each item that follows carries a reported Luminescence Raw1.
Write no unit; give the number alone.

>>> print(df.to_string())
                                   compound  experimental_endpoint  recorded_measurement
0  C=C1CC[C@H]2[C@]3(C)C[C@@H](C=C(C)C)O[C@H]3CC[C@]2(C)[C@@H]1Cc1c(OC)oc(CO)c(C)c1=O      Luminescence Raw1               2678864
1  C=C1CCC2C3(C)CC(C=C(C)C)OC3CCC2(C)C1Cc1c(OC)oc(C)c(C)c1=O (centres unmarked)      Luminescence Raw1               1660895
2  C=C1CCC2C(C)(CCC=C(C)C)C(O)CCC2(C)C1Cc1c(OC)oc(CO)c(C)c1=O (centres unmarked)      Luminescence Raw1               1994873

State its Luminescence Raw1 on DL1 cells: C=C1CCC2C(C)(CCC=C(C)C)C(O)CCC2(C)C1Cc1c(OC)oc(C)c(C)c1=O (centres unmarked) [Compound 15, viridoxin A hydrolysate]
2784909
